Quick record: Ki, Glucocorticoid receptor (Homo sapiens, UniProt P04150).

Worked cases, answers included:
compound	Ki
CCOC1=CC(=O)C(Cc2ccc([N+](=O)[O-])cc2)C(C)(C)C1 (stereo not drawn)	10 µM (not active)
C=C1[C@@H](Cc2cc(OC)c(Br)cc2O)C(C)(C)CC[C@@]1(C)O	> 10 µM

// moving on: another record for Ki
Query the reported Ki for Glucocorticoid receptor (Homo sapiens, UniProt P04150); item: "C=C1[C@H](O)CCC(C)(C)[C@@H]1Cc1cc(OC)c(Br)cc1O"
> 10 µM

----------
Quick record: IC50, Progesterone receptor (Homo sapiens, UniProt P06401).
property_measured: IC50 (nM)

a. C=C1C=C(C)CC(C)(C)C1Cc1cc(OC)c(Br)cc1OC(C)=O (configuration not stated)
b. CCOC1=CC(=O)C(Cc2ccc([N+](=O)[O-])cc2)C(C)(C)C1 (configuration not stated)
Could you tell me which of a and b has the lower IC50 reading? State the label of the item chosen.
a
(a: 710 nM, b: 2440 nM)

1. C=C1C[C@H](C)C[C@@H](C)[C@@H]1Cc1cc(OC)c(Br)cc1O
2. C=C1C=C(C)CC(C)(C)C1Cc1ccc2nonc2c1 (configuration not stated)
3. C=C1CCCC(C)(C)C1Cc1cc(OC)c(Br)cc1O (configuration not stated)
Sequence the entries by IC50, beginning with the highest number. Return the labels ranked in the requested order, please.
2, 1, 3
(2: 1950 nM, 1: 985 nM, 3: 405 nM)

----------
Target: Estrogen receptor (Homo sapiens, UniProt Q92731+P03372)
# maps each entry to its IC50

compound	IC50
C=C1CC[C@@H](Br)C(C)(C)[C@@H]1Cc1cc(OC)c(Br)cc1O	> 10 µM

What does the record list as IC50 for "C=C1CCCC(C)(C)[C@H]1Cc1cc(OC)c(Br)cc1O" ?
> 10 µM

What does the record list as IC50 for C=C1C=C(C)CC(C)(C)C1Cc1ccc([N+](=O)[O-])cc1 (stereo not drawn) ?
> 10 µM

----------
Quick record: Ki, Androgen receptor (Homo sapiens, UniProt P10275).

What does the record list as Ki for C=C1C=C(C)CC(C)(C)C1Cc1ccc2nonc2c1 (centres undefined) ?
> 10 µM

What does the record list as Ki for C=C1C=C(C)CC(C)(C)C1Sc1ccc([N+](=O)[O-])cc1 (centres undefined) ?
> 10 µM

What does the record list as Ki for "C=C1[C@H](O)CCC(C)(C)[C@@H]1Cc1cc(OC)c(Br)cc1O" ?
10 µM (not active)

What does the record list as Ki for CCOC1=CC(=O)C(Cc2ccc([N+](=O)[O-])cc2)C(C)(C)C1 (centres undefined) ?
10 µM (not active)

Data provenance is ChEMBL document CHEMBL1129561.
